B1: LINE1-full (parent)
chain: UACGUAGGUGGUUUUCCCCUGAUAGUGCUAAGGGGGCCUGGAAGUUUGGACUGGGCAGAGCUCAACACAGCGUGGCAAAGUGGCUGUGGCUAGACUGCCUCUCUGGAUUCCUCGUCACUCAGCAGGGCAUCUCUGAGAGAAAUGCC

variants of: B1; assay: self-cleavage, relative activity (ratio to wild type); higher = more cleavage; in vitro, sequencing; the parent is a self-cleaving ribozyme
Some variants, each annotated with its measured self-cleavage.
Observable: self-cleavage

Chain	Endpoint Value
UACGUAGGUGGUUUUCCCCUGAUAGUGCUAAGGGGGCCUGGAAGUUUGGACUGGGCAGAGCUCAACACAGCGUGGCAGAGUGGCUGUGGCUAGACUGCCUCUCUGGAUUCCCCGUCACUCAGCAGGGCAUCUCUGAGAGAAAUGCC	1.24
UACGUUGGUGGUUUUCCCCUGAUAGUGCUAAGGGGGCCUGGAAGUUUGGACUGGGCAGAGCUCAACACAGCGUGGCAAAGUGGCUGUGGCUAGACUGCCUCUCUGGAUUCCUCGUCACUCGGCAGGGCAUCUCUGAGAGAAAUGCC	0.87
UACGUAGGUGGUUUUCCCUUGAUAGUGCUAAGGGGGCCUGGAAGUUUGGACUGGGCAGAGCUCAACACAGCGUGGCAAAGUGGCUGUGGCUAGACUGCCUCUCUGGAUUCCUCGUCACUCAGCAGGGCAUCUCUGAGGGAAAUGCC	1.01
UACGUAGGUGGUUUUCCCCUGAUAGUGCUAAGGGGGCCUGGAAGUUUGGACUGGGCAGAGCUCAACACAGCCCGGCAAAGUGGCUGUGGCUAGACUGCCUCUCUGGAUUCCUCGUCACUCAGCAGGGCAUCUCUGAGAGAAAUGCC	1.13
UACGUAGGCGGUUUUCCCCUGAUAGUGCUAAGGGGGCCUGGAAGUUUGGACUGGGCAGAGCUCAACACAGCGUGGCAAAGUGGCUGUGGCUAGACUGCCUCUCUGGAUUCCUCGUCACUCAACAGGGCAUCUCUGAGAGAAAUGCC	1.43
UACGUAGGUGGUUUUCCCCUGAUUGUGCUAAGGGGGCCUGGAAGUUUGGACUGGGCAGAGCUCAACACUGCGUGGCAAAGUGGCUGUGGCUAGACUGCCUCUCUGGAUUCCUCGUCACUCAGCAGGGCAUCUCUGAGAGAAAUGCC	0.09
UACGUAGGUGGUUUUCCCCUGAUAGUGCUAAGGGGGCCUGGAAGUUUGGACUGGGCAGAGCUCAACACGGCGUGGCAAAGUGGCUGUGGCUAGAUUGCCUCUCUGGAUUCCUCGUCACUCAGCAGGGCAUCUCUGAGAGAAAUGCC	0.06
UACGUAGGUGGUUUUCCCCUGAUAGUGCUAAGGGGGCCUGGAAGUUUGGACUGGGCAGAGCUCAACACAGCGUGGCAAAGUGGCUGUGGGUAGACUGCCUCUCUGGAUUCCUCGUCACUCAGCAGGGCAUCUCAGAGAGAAAUGCC	0.03
UACGUAGGUGGUUUUCCCCUGAUAGUGCUAAGGGGGCCUGGAAGUUUGGACUGGGCGGAGCUCAACACAGCGUGGCAAAGUGGCUGUGGCUAGACUGCCUCUCUGGAUUCCUCGUCACUCAGCAGGGCAUCUCGGAGAGAAAUGCC	0.78
UACGUAGGUGGUUUUCCCCUGAUAGUGCUAAGGGGGCCUGGGAGUUUGGACUGGGCAGAGCUCAACACGGCGUGGCAAAGUGGCUGUGGCUAGACUGCCUCUCUGGAUUCCUCGUCACUCAGCAGGGCAUCUCUGAGAGAAAUGCC	0.54
UACGUAGCUGGUUUUCCCCUGAUAGUGCUAAGGGGGCCUGGAAGUCUGGACUGGGCAGAGCUCAACACAGCGUGGCAAAGUGGCUGUGGCUAGACUGCCUCUCUGGAUUCCUCGUCACUCAGCAGGGCAUCUCUGAGAGAAAUGCC	1.13
UACGUAGGUGGUUUUCCCCUGAUAGUGCUAAGGGGGCCUGGAAGUUUGGACUGGGCAGAGCUCAGCACAGCGUGGCAAAGUGGCUGUGGCUAGACUGCCUCUCUGGAUUCCUCGUCACUCAGCAGAGCAUCUCUGAGAGAAAUGCC	0.02
UACGUAGGUGGUUUUCCCCUGAUAGUGCUAAGGGGGCCUGGAAGUUUGGACUGGGCAGAGCUCAACACAGCGUGGCAGAGUGGCUGUGGCUAGACUGCCUCUCUGGAUUCUUCGUCACUCAGCAGGGCAUCUCUGAGAGAAAUGCC	0.93
UAUGUAGGUGGUUUUCCCCUGAUAGUGCUAAGGGGGCCCGGAAGUUUGGACUGGGCAGAGCUCAACACAGCGUGGCAAAGUGGCUGUGGCUAGACUGCCUCUCUGGAUUCCUCGUCACUCAGCAGGGCAUCUCUGAGAGAAAUGCC	0.79
UACGUAGGUGGUUUUCCCCUGAUAGUGCUAAGGGGGCCUGGAUGUUUGGACUGGGCAGAGCUCAACACAGCGUGGCAAAGCGGCUGUGGCUAGACUGCCUCUCUGGAUUCCUCGUCACUCAGCAGGGCAUCUCUGAGAGAAAUGCC	1.26
UACGUAGGUGGUCUUCCCCUGAUAGUGCUAAGGGGGCCUGGAAGUUUGGACUGGGCAGAGCUCAACACAGCGUGACAAAGUGGCUGUGGCUAGACUGCCUCUCUGGAUUCCUCGUCACUCAGCAGGGCAUCUCUGAGAGAAAUGCC	1.16
UACGUAGGUGGUUUUCCCCUGAUAGUGCUAAGGGGGCCUGGAAGUUUGGACUGGGCAGAGCUCAACACAGCGUGGCAAAGUGGCUGUGGCUAGACUGCCUCUCUGGAUUCCCCGUCACUCAGCAGGACAUCUCUGAGAGAAAUGCC	1.35
UACGUAGGUGGUUUUCCCCUGAUAGUGCUAAGGGGGCCUGGAAGUUAGGACUGGGCAGAGCUCAACACAGCGUGGCAAAGUGGCUGUGGCUAGACUGCCUCUCUGGGUUCCUCGUCACUCAGCAGGGCAUCUCUGAGAGAAAUGCC	0.95
UACGUAGGUGGUUUUCCCCUGAUAGUGCUAAGGGGGCCCGGAAGUUUGGACUGGGCAGAGCUCAACACAGCGUGGCAAAGUGGCUGUGGCUAGACUGCCUCUCUGGAUUGCUCGUCACUCAGCAGGGCAUCUCUGAGAGAAAUGCC	0.51
UACGUAGGUGGUUUUCCCCUGAUAGUGCUAAGGGGGCCUGGAAGUUUGGACUGGGUAGAGCUCAACACAGUGUGGCAAAGUGGCUGUGGCUAGACUGCCUCUCUGGAUUCCUCGUCACUCAGCAGGGCAUCUCUGAGAGAAAUGCC	0.07
UACGUAGGUGGUUUUCCCCUGAUAGUGCUAAGGGGGCCUGGAAGUUUGGACUGGGCAGAGCUCAACACAGCGUGGCAAAGUGGCUGUGGCUAGACUGCCUCUCUGGAUUCAUCGUCACUCAGCAGGGCAUCUCUGAGAGAAAUGCC	1.25
UACGUAGGUGGUUUUCCCUUGAUAGUGCUAUGGGGGCCUGGAAGUUUGGACUGGGCAGAGCUCAACACAGCGUGGCAAAGUGGCUGUGGCUAGACUGCCUCUCUGGAUUCCUCGUCACUCAGCAGGGCAUCUCUGAGAGAAAUGCC	1.35
UACGUAGGUGGUUUUCCCCUGAUAGUGCUAAGUGGGCCUGGAAGUUUGGACUGGGCAGAGCUCAACACAGCGUGGCAAAGUGGCUGUGGCUAGACUGCCUCUCUGGAUUCCUCGUCACUCAGCAGGGCAUCUCUGAGAGGAAUGCC	1.83
UACGUAGGUGGUUUUCCCCUGAUAGUGCUAAGGGGGCCUGGAAGGUUGAACUGGGCAGAGCUCAACACAGCGUGGCAAAGUGGCUGUGGCUAGACUGCCUCUCUGGAUUCCUCGUCACUCAGCAGGGCAUCUCUGAGAGAAAUGCC	1.25
UACGUAGGUGGUUUUCCCCUGAUAGUGCUAAGGGGGCCUGGAAGUUUGGACUGGGCAGUGCUCAACACAGCGUGGCAAAGUGGCUGUGGCUAGACUGCCUCUCUGGACUCCUCGUCACUCAGCAGGGCAUCUCUGAGAGAAAUGCC	1.09
UACGUAGGUGGUUUUCCCCUGAUAGUGCUAAGGGGGCCUGGAGGUUUGGACUGGGCAGAGCUCAACACAGCGUGGCAAAGUGGCUGUGGCUAGACUGCCUCUCUGGAUUCCUCGUCACUCAGCAGGGCAUCUCUGGGAGAAAUGCC	1.5
UACGUUGGUGGUUUUCCCCUGAUAGUGCUAAGGGGGCCUGGAAGUUUGGACUGGGCAGAGCUCAACACAGCGUGGCAAAGUGGCUGUGGCUAGACUGCCUCUCUUGAUUCCUCGUCACUCAGCAGGGCAUCUCUGAGAGAAAUGCC	1.71
UACGUAGGUGGUUUUCCCCUGAUUGUGCUAAGGGGGCCUGGAAGUUAGGACUGGGCAGAGCUCAACACAGCGUGGCAAAGUGGCUGUGGCUAGACUGCCUCUCUGGAUUCCUCGUCACUCAGCAGGGCAUCUCUGAGAGAAAUGCC	0.99
UACGUAGGUGGUUUUCCCCUGAUAGUGCUAAGGGGGCCUGGAAGUUUGGACUGGGCAGAGCUCAACACAGCGUGGCAAAGUGGCUGUGGCUAGUCUGCCUCUCUGGAUUCCUCGACACUCAGCAGGGCAUCUCUGAGAGAAAUGCC	0.31
UACGUAGGUGGUUUUCCCCUGAUAGUGCUAAGGGGGCCUGGAAGUUUGGACUGGGCAGAGCUCUACACAGUGUGGCAAAGUGGCUGUGGCUAGACUGCCUCUCUGGAUUCCUCGUCACUCAGCAGGGCAUCUCUGAGAGAAAUGCC	0.37
UACGUAGGUGGUUUCCCCCUGAUAGUGCUAAGGGGGCCUGGAAGUUUGGACUGGGCAGAGCUCAACACAGCGUGGCAAAGUGGCUGUGGCUAGACUGCCUCUCUGGACUCCUCGUCACUCAGCAGGGCAUCUCUGAGAGAAAUGCC	1.99
UACGUAGGUGGUUUUCCCCUGAUAGUGCUAAGGGGGCCUGGAAGUUUGGACUGGGCAGGGCUCAACACAGUGUGGCAAAGUGGCUGUGGCUAGACUGCCUCUCUGGAUUCCUCGUCACUCAGCAGGGCAUCUCUGAGAGAAAUGCC	0.04
UACGUAGGUGGUCUUCCCCUGAUAGUGCUAAGGGGGCCUGGAAGUUUGGACUGGGCAGAGCUCAACACAGCGUGGCAAAGUGGCUGUGGCUAGACUGCCUCUCUGGAUUCCGCGUCACUCAGCAGGGCAUCUCUGAGAGAAAUGCC	1.13
UACGUAGGUGGUCUUCCCCUGAUAGUGCUAAGGGGGCCUGGAAGUUUGGACUGGGCAGAGCUCAACACAGCGUGGCAAAGUGGCUGUGGCUAGACUGCCUCUCUGGAUUCCUCGUCACUCAGCAGGGCAUCUCUGAGAUAAAUGCC	1.19
UACGUAGGUGGUUUUCCCCUGAUAGUGCUUAGGGGGCCUGGAAGUUUGGACUGGGCAGAGCUCAACACAGCGUGGCAACGUGGCUGUGGCUAGACUGCCUCUCUGGAUUCCUCGUCACUCAGCAGGGCAUCUCUGAGAGAAAUGCC	1.19
UACGUAGGUGGUUUUCCCCUGAUAGUGCUAAGGGGGCCUGGAAGUUUGGACUGGGCAGAGCUCAACACAGCGUGGCAAAGUGGCUGUGGUUAGACUGCCUCUCUGGAUUCCUCGUCACUCAGCAGGGCAUCUCCGAGAGAAAUGCC	0.04
UACGUAGGUGGUUUUCCCCUGAUAGUGCUAAGGGGGCCUGGAAGUUUGGACUGGGCAGAGCUCAACACAGCAUGGCAAAGUGGCUGUGGCUAGACUGCCUCUCUGGAUUCCUCGUCACUCAGCAGGGCGUCUCUGAGAGAAAUGCC	1.67
UACGUAGGUGGCUUUCCCCUGAUAGUGCUAAGGGGGCCUGGAGGUUUGGACUGGGCAGAGCUCAACACAGCGUGGCAAAGUGGCUGUGGCUAGACUGCCUCUCUGGAUUCCUCGUCACUCAGCAGGGCAUCUCUGAGAGAAAUGCC	1.33
UACGUAGGAGGUUUUCCCCUGAUAGUGCUAAGGGGGCCUGGAAGUUUGGACUGGGCAGAGCUCAACACAGCGUGGCAAAGUGGCUGUGGCUAGACUGCCUCUCUGGAUUCCACGUCACUCAGCAGGGCAUCUCUGAGAGAAAUGCC	0.82
UACGUAGGUGGUUUUCCCCUGAUAGUGCUAAGGGGGCCUGGAAGUUUGGACUGGGCAGAGCUCAACACAGCGUGGCAAAGUGGCUGUGGCUAGACUUCCUCUCUGGAUUCCUCGUCACUCAGUAGGGCAUCUCUGAGAGAAAUGCC	0.03
UACGUAGGUGGUUUUCCCCUGAUAGUGCUAAGGGGGCCUGGAAGUUUGGACUGGGCAGAGCUCAACACGGCGUGGCAAAGUGGCUGUGGCUAGACUGCCUCUCUGGAUUCCGCGUCACUCAGCAGGGCAUCUCUGAGAGAAAUGCC	1.15
UACGUAGGUGGUUUUCCCCUGAUAGUGCUAAGGGGGCCUGGAAGUUUGGACUGGGCAGAGCUCAACACAGCGUGGCAAUGUGGCUGUGGCUAGACUGCCUCUCUGGAUUCCUCGUCACUCAGCAGGGCAUCUCUCAGAGAAAUGCC	2.76
UACGUAGGUGGUUUUCCCCUGAUAGUGCUGAGGGGGCCUGGAAGUUUGGACUGGGCAGAGCUCAACACAGCGUGGCAAAGUGGCUGAGGCUAGACUGCCUCUCUGGAUUCCUCGUCACUCAGCAGGGCAUCUCUGAGAGAAAUGCC	0.16
UACGUAGGUGGUUUUCCCCUGAUAGUGCUAAGGGGGCCUGGAAGUUUGGACUGGGCAGAGCUCAACACAGAGUGGCAAAGUGGCUGUGGCUAGACUGCCUCUCUGGAUUCCUCGUCACUCAGCAGGGCAUCUCUGAGAGGAAUGCC	0.23
UACGUAGGUGUUUUUCCCCUGAUAGUGCUAAGGGGGCCUGGAAGUUUGGACUGGGCAGAGCUCAACACAGCGUGGCAAUGUGGCUGUGGCUAGACUGCCUCUCUGGAUUCCUCGUCACUCAGCAGGGCAUCUCUGAGAGAAAUGCC	1.75
UACGCAGGUGGUUUUCCCCUGAUAGUGCUAAGGGGGCCUGGAAGUUUGGACUGGGCAGAGCUCAACACAGCGUGGCAAAGUGGCUGUGGCUAGACUGCCUCUCUGGAUUCCUCGUCACUCAGCAGGGCAUCACUGAGAGAAAUGCC	1.98

Each recorded value in this set is attributed to the RNAGym collection of RNA variant scans (doi:10.7554/elife.90254).
